Below, each of the compounds is paired with its reported zone of inhibition at 30 µg/mL value.
# Test system: Fusarium oxysporum
# EXPERIMENTAL PROTOCOL: Antifungal activity against Fusarium oxysporum at 30 ug/ml after 72 hrs by agar well diffusion method
# Type: functional
# TEST SETTINGS: read-out: DIZ
Numbered stars: 1 amine (or outer) side, 2 acyl side, 3 side chain; on linkers, the order of the positions; unused ones are H or OH. Peptide text beside a SMILES is read from it. * marks the point of attachment. Piperazinyl(4-(2,3-Cl2Ph)) = Clc1cccc(N2CCN(*)CC2)c1Cl; Thiocarbamoyl(N-2-FPh) = Fc1ccccc1NC(=S)*; NH(4-MeO-phenyl) = COc1ccc(N*)cc1; NH(4-Cl-phenyl) = Clc1ccc(N*)cc1; X1 = Fc1ccc2c(C3CCN(*)CC3)noc2c1; NH(2-F-phenyl) = Fc1ccccc1N*; CO = O=C([*:1])[*:2]
Response body: numeric value in mm, unit text excluded.

Below, 2 compounds whose answers are already recorded.
O=C(CNC(=O)Nc1ccccc1F)NCC(=O)N[C@@H](Cc1ccccc1)C(=O)N1CCC[C@H]1C(=O)N1CCC(c2noc3cc(F)ccc23)CC1 ({NH(2-F-phenyl)-CO}-GGFP-X1)	31
O=C(CNC(=S)Nc1ccccc1F)NCC(=O)N[C@@H](Cc1ccccc1)C(=O)N1CCC[C@H]1C(=O)N1CCC(c2noc3cc(F)ccc23)CC1 ({Thiocarbamoyl(N-2-FPh)}-GGFP-X1)	32

Check the records and state zone of inhibition at 30 µg/mL for COc1ccc(NC(=O)NCC(=O)NCC(=O)N[C@@H](Cc2ccccc2)C(=O)N2CCC[C@H]2C(=O)N2CCN(c3cccc(Cl)c3Cl)CC2)cc1 ({NH(4-MeO-phenyl)-CO}-GGFP-{Piperazinyl(4-(2,3-Cl2Ph))})
22

Return zone of inhibition at 30 µg/mL (reported value) for this compound: O=C(CNC(=O)Nc1ccc(Cl)cc1)N[C@@H](Cc1ccccc1)C(=O)NCC(=O)N[C@@H](Cc1ccccc1)C(=O)N1CCC[C@H]1C(=O)N1CCC(c2noc3cc(F)ccc23)CC1 ({NH(4-Cl-phenyl)-CO}-GFGFP-X1)
35

Output measured zone of inhibition at 30 µg/mL for this item: O=C(CNC(=O)Nc1ccccc1F)N[C@@H](Cc1ccccc1)C(=O)NCC(=O)N[C@@H](Cc1ccccc1)C(=O)N1CCC[C@H]1C(=O)N1CCC(c2noc3cc(F)ccc23)CC1 ({NH(2-F-phenyl)-CO}-GFGFP-X1)
39

----------
# Tested on: Fusarium oxysporum
# EXPERIMENTAL PROTOCOL: Antifungal activity against Fusarium oxysporum at 30 ug/ml after 72 hrs by agar well diffusion method
# Format: functional
# TEST SETTINGS: read-out: DIZ
Numbered stars: 1 amine (or outer) side, 2 acyl side, 3 side chain; on linkers, the order of the positions; unused ones are H or OH. Peptide text beside a SMILES is read from it. * marks the point of attachment. Thiocarbamoyl(N-2-FPh) = Fc1ccccc1NC(=S)*; NH(4-Cl-phenyl) = Clc1ccc(N*)cc1; X1 = Fc1ccc2c(C3CCN(*)CC3)noc2c1; NH(2-F-phenyl) = Fc1ccccc1N*; CO = O=C([*:1])[*:2]
METRIC: zone of inhibition at 30 µg/mL (mm)
// note: answer is a bare numeric in mm

GET zone of inhibition at 30 µg/mL where system = Fusarium oxysporum and item = CC(C)[C@H](NC(=O)CNC(=O)Nc1ccccc1F)C(=O)NCC(=O)N[C@H](C(=O)N1CCC[C@H]1C(=O)N1CCC(c2noc3cc(F)ccc23)CC1)C(C)C ({NH(2-F-phenyl)-CO}-GVGVP-X1)
33

State zone of inhibition at 30 µg/mL on Fusarium oxysporum. Entry: CC(C)[C@H](NC(=O)CNC(=S)Nc1ccccc1F)C(=O)NCC(=O)N[C@H](C(=O)N1CCC[C@H]1C(=O)N1CCC(c2noc3cc(F)ccc23)CC1)C(C)C ({Thiocarbamoyl(N-2-FPh)}-GVGVP-X1)
35

Specify the recorded zone of inhibition at 30 µg/mL for CC(C)[C@H](NC(=O)CNC(=O)Nc1ccc(Cl)cc1)C(=O)NCC(=O)N[C@H](C(=O)N1CCC[C@H]1C(=O)N1CCC(c2noc3cc(F)ccc23)CC1)C(C)C ({NH(4-Cl-phenyl)-CO}-GVGVP-X1) , system: Fusarium oxysporum.
32
